biological target: Cathepsin D (Homo sapiens (Human))
hey, just use Criterion met if measured IC50 is less than 200 µM, otherwise Criterion not met

Prompt: For this molecule, is IC50 lower than 200 µM? COc1cnc(C(=O)Nc2ccc3c(c2)[C@@]2(CCSC(N)=N2)c2cc(C4=CCOCC4)nc(F)c2O3)cn1
Completion: Criterion met

Prompt: For this molecule, is IC50 lower than 200 µM? COc1cnc(C(=O)Nc2ccc3c(c2)[C@@]2(CCOC(N)=N2)c2cc(C4=CCCOC4)cc(F)c2O3)cn1
Completion: Criterion met

Prompt: For this molecule, is IC50 lower than 200 µM? COc1cnc(C(=O)Nc2ccc3c(c2)[C@]2(CCSC(N)=N2)c2cc(Cl)nc(F)c2O3)cn1
Completion: Criterion met

Prompt: For this molecule, is IC50 lower than 200 µM? COc1cnc(C(=O)Nc2ccc3c(c2)[C@@]2(CCOC(N)=N2)c2cc(-c4ccnc(F)c4)nc(F)c2O3)cn1
Completion: Criterion not met

Prompt: For this molecule, is IC50 lower than 200 µM? NC1=N[C@@]2(CCO1)c1cc(NC(=O)c3ccc(Cl)cn3)ccc1Oc1cnc(C3=CCCOC3)cc12
Completion: Criterion not met

====

molecular target: Cathepsin D (Homo sapiens (Human), UniProt P07339)
Sequence (P07339 65-412, species assumed): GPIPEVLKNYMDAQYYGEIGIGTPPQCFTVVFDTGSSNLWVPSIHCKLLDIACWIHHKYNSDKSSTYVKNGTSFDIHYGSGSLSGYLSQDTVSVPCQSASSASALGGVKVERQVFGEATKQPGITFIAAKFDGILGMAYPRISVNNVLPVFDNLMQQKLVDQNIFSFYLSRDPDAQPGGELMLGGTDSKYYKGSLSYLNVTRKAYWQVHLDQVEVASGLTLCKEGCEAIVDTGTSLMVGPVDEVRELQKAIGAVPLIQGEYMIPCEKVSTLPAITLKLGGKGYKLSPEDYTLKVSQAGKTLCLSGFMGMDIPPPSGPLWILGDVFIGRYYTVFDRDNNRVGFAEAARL
endpoint-label: pIC50
// pIC50: -log10(molar conc.)

Prompt: pIC50 for COc1cc(F)c2c(c1)[C@]1(CCSC(N)=N1)c1cc(NC(=O)c3ccc(Cl)cn3)ccc1O2 [Example 32] ?
Completion: 3.46

Prompt: pIC50 for CCOc1cccnc1Nc1ccc2c(c1)[C@@]1(CCSC(N)=N1)c1cc(OC)cc(F)c1O2 [Example 33] ?
Completion: 3.58

Prompt: pIC50 for COc1ccc(C(=O)Nc2ccc3c(c2)[C@@]2(CCSC(N)=N2)c2cc(O)cc(F)c2O3)nc1 [Example 105] ?
Completion: 3.65

Prompt: pIC50 for COc1cnc(C(=O)Nc2ccc3c(c2)[C@@]2(CCSC(N)=N2)c2cc(N4CCOCC4)cc(F)c2O3)cn1 [Example 110] ?
Completion: 3.64

Prompt: pIC50 for COc1ccc(C(=O)Nc2ccc3c(c2)[C@@]2(CCOC(N)=N2)c2cc(-c4cncc(F)c4)nc(F)c2O3)nc1 [Example 87] ?
Completion: 3.59

Prompt: pIC50 for COc1cnc(C(=O)Nc2ccc3c(c2)[C@@]2(CCSC(N)=N2)c2cc(O)cc(F)c2O3)cn1 [Example 109] ?
Completion: 3.40

Prompt: pIC50 for NC1=N[C@@]2(CCO1)c1cc(NC(=O)c3ccc(Cl)cn3)ccc1Oc1c2cc(C2=CCOCC2)nc1F [Example 63] ?
Completion: 3.40

====

Answer each item with its documented IC50.
Give just the number in nM; leave the unit off.

Prompt: API: value(readout=IC50, system=BACE 1 (beta secretase enzyme) (Homo sapiens (Human), UniProt P56817)) for record COc1cnc(C(=O)Nc2ccc3c(c2)[C@@]2(CCSC(N)=N2)c2cc(C4=CCOCC4)ncc2O3)cn1
Completion: 1.7

Prompt: API: value(readout=IC50, system=BACE 1 (beta secretase enzyme) (Homo sapiens (Human), UniProt P56817)) for record NC1=N[C@@]2(CCO1)c1cc(NC(=O)c3ccc(Cl)cn3)ccc1Oc1c2cc(C2CC2)nc1F
Completion: 2.4

Prompt: API: value(readout=IC50, system=BACE 1 (beta secretase enzyme) (Homo sapiens (Human), UniProt P56817)) for record COc1nc(C2=CCOCC2)cc2c1Oc1ccc(NC(=O)c3ccc(Cl)cn3)cc1[C@@]21CCOC(N)=N1
Completion: 7

Prompt: API: value(readout=IC50, system=BACE 1 (beta secretase enzyme) (Homo sapiens (Human), UniProt P56817)) for record Cc1nc(C(=O)Nc2ccc3c(c2)[C@@]2(CCOC(N)=N2)c2cc(C4=CCCOC4)nc(F)c2O3)cs1
Completion: 0.9

Prompt: API: value(readout=IC50, system=BACE 1 (beta secretase enzyme) (Homo sapiens (Human), UniProt P56817)) for record N#Cc1ccc(C(=O)Nc2ccc3c(c2)[C@@]2(CCOC(N)=N2)c2cc(-c4cncc(F)c4)nc(F)c2O3)nc1
Completion: 0.6

Prompt: API: value(readout=IC50, system=BACE 1 (beta secretase enzyme) (Homo sapiens (Human), UniProt P56817)) for record COc1cc(F)c2c(c1)[C@]1(CCOC(N)=N1)c1cc(NC(=O)c3ccc(Cl)cc3F)ccc1O2
Completion: 181

Prompt: API: value(readout=IC50, system=BACE 1 (beta secretase enzyme) (Homo sapiens (Human), UniProt P56817)) for record NC1=N[C@@]2(CCO1)c1cc(NC(=O)c3ccc(Cl)cn3)ccc1Oc1cnc(C3CC3)cc12
Completion: 10.7

Prompt: API: value(readout=IC50, system=BACE 1 (beta secretase enzyme) (Homo sapiens (Human), UniProt P56817)) for record NC1=N[C@@]2(CCO1)c1cc(NC(=O)c3ccc(Cl)cn3)ccc1Oc1ncc(C3=CCCOC3)cc12
Completion: 5.1

Prompt: API: value(readout=IC50, system=BACE 1 (beta secretase enzyme) (Homo sapiens (Human), UniProt P56817)) for record COc1cnc(C(=O)Nc2ccc3c(c2)[C@@]2(CCOC(N)=N2)c2cc(-c4cncc(F)c4)nc(F)c2O3)cn1
Completion: 1.3

Prompt: API: value(readout=IC50, system=BACE 1 (beta secretase enzyme) (Homo sapiens (Human), UniProt P56817)) for record COc1cnc(C(=O)Nc2ccc3c(c2)[C@@]2(CCOC(N)=N2)c2cc(C4=CCCOC4)nc(F)c2O3)cn1
Completion: 2.7

Prompt: API: value(readout=IC50, system=BACE 1 (beta secretase enzyme) (Homo sapiens (Human), UniProt P56817)) for record CCOc1cccnc1Nc1ccc2c(c1)[C@@]1(CCSC(N)=N1)c1cc(OC)cc(F)c1O2
Completion: 48.6

Prompt: API: value(readout=IC50, system=BACE 1 (beta secretase enzyme) (Homo sapiens (Human), UniProt P56817)) for record COc1ccc(C(=O)Nc2ccc3c(c2)[C@@]2(CCSC(N)=N2)c2cc(O)cc(F)c2O3)nc1
Completion: 29.4

Prompt: API: value(readout=IC50, system=BACE 1 (beta secretase enzyme) (Homo sapiens (Human), UniProt P56817)) for record COc1ccc(C(=O)Nc2ccc3c(c2)[C@@]2(CCOC(N)=N2)c2cc(C4=CCCOC4)nc(F)c2O3)nc1
Completion: 0.9

Prompt: API: value(readout=IC50, system=BACE 1 (beta secretase enzyme) (Homo sapiens (Human), UniProt P56817)) for record N#Cc1ccc(C(=O)Nc2ccc3c(c2)[C@@]2(CCOC(N)=N2)c2cc(C4=CCOCC4)nc(F)c2O3)nc1
Completion: 0.74

Prompt: API: value(readout=IC50, system=BACE 1 (beta secretase enzyme) (Homo sapiens (Human), UniProt P56817)) for record COc1cnc(C(=O)Nc2ccc3c(c2)[C@@]2(CCOC(N)=N2)c2cc(C#CC(C)(C)C)ncc2O3)cn1
Completion: 12
